Biological target: PDE3A catalytic zone (PDE3Acat) (Homo sapiens)
Sequence (Q14432 674-1093 limits assumed): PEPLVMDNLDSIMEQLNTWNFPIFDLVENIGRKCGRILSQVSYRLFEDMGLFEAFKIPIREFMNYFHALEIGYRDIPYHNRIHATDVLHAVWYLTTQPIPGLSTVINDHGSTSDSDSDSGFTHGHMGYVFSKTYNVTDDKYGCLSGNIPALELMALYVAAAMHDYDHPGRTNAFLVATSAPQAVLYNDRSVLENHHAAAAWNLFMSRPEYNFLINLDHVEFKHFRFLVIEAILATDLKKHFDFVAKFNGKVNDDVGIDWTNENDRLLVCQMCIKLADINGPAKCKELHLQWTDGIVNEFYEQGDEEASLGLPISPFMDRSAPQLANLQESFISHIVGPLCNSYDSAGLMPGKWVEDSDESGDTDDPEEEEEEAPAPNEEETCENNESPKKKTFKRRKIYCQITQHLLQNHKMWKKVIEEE
Test: Phosphodiesterase 3-inhibitory activity ([3H]-cAMP, recombinant PDE3Acat)
Details: 30° C. 20 minutes, read-out: IC50 value, PDE3
pIC50: −log10 of the molar value.
Each entry below lists one item and its recorded pIC50 value.

Field: example entries. Status: answers known.
| molecule | pIC50 |
| --- | --- |
| COc1ccc(-c2ccc3c(c2)CNC3=O)c2cc(C(F)(F)F)nn12 [Example 59] | < 6.00 |
| CNc1ccc(-c2ccc3[nH]c(=O)ccc3c2)c2cc(C(F)(F)F)nn12 [Example 64] | < 6.00 |

Summary for this molecule, CNc1ccc(-c2ccc3c(c2)CCNC3=O)c2cc(C(F)(F)F)nn12 [Example 63] : pIC50 is < 6.00

###

Target: PDE4B catalytic zone (PDE4Bcat) (Homo sapiens, UniProt Q07343)
Sequence (Q07343 330-659 limits assumed): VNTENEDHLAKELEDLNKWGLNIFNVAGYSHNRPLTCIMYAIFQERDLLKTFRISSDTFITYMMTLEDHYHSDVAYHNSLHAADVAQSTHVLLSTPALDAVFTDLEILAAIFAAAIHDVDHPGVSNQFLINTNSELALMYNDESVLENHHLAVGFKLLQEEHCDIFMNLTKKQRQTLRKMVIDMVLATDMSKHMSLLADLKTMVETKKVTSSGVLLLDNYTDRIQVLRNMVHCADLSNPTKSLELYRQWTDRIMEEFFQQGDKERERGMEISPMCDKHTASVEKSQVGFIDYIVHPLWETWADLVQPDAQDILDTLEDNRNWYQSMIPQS
Experiment: Phosphodiesterase 4 inhibitory activity ([3H]-cAMP, recombinant PDE4Bcat)
Settings: 30° C. 20 minutes, read-out: IC50 (μmol/L) PDE4
Each entry below lists one item and its recorded IC50 value.

Field: example entries. Status: answers known.
| compound | recorded_measurement |
| --- | --- |
| COc1ccc(-c2ccc3c(=O)[nH]ccc3c2)c2cccnc12 [Example 80] | 0.01 to 0.1 µmol/L |
| COc1ccc(-c2ccc3[nH]c(=O)ccc3c2)c2c1OCNC2=O [Example 72] | 0.01 to 0.1 µmol/L |
| COc1ccc(-c2ccc3[nH]c(=O)ccc3c2)c2[nH]c(C(F)(F)F)nc12 [Example 118] | 0.01 to 0.1 µmol/L |
| CNc1ccc(-c2ccc3c(c2)CCNC3=O)n2c(Cl)c(C(F)(F)F)nc12 [Example 143] | < 0.01 µmol/L |

Summary for this compound, COc1ccc(-c2ccc3c(=O)[nH]cc(Cl)c3c2)c2cc(C(F)(F)F)nn12 [Example 60] : IC50 is < 0.01 µmol/L

Summary for this compound, COc1ccc(-c2ccc3c(c2)CCNC3=O)c2cc(C3CC3)nn12 [Example 121] : IC50 is 0.01 to 0.1 µmol/L

Summary for this compound, CNc1ccc(-c2ccc3c(ccc(=O)n3C)c2)c2c(Cl)c(C(F)(F)F)nn12 [Example 137] : IC50 is < 0.01 µmol/L

Summary for this compound, COc1ccc(-c2ccc3c(ccc(=O)n3CC(=O)O)c2)c2cc(C(F)(F)F)nn12 [Example 93] : IC50 is 0.01 to 0.1 µmol/L

Summary for this compound, COc1ccc(-c2ccc3[nH]c(=O)ccc3c2)n2cc(C(F)(F)F)nc12 [Example 90] : IC50 is 0.01 to 0.1 µmol/L

###

Molecular target: PDE4B catalytic zone (PDE4Bcat) (Homo sapiens, UniProt Q07343)
Assay: Phosphodiesterase 4 inhibitory activity ([3H]-cAMP, recombinant PDE4Bcat)
Settings: 30° C. 20 minutes, read-out: IC50 (μmol/L) PDE4
Each entry below lists one item and its recorded IC50 value.

Form: item `COc1ccc(-c2ccc3cc[nH]c(=O)c3c2)c2cc(C(F)(F)F)nn12` ; test system PDE4B catalytic zone (PDE4Bcat) (Homo sapiens, UniProt Q07343); IC50: < 0.01 µmol/L

Form: item `COc1ccc(-c2ccc3c(c2)CCC(=O)N3)c2cc(C(F)(F)F)nn12` ; test system PDE4B catalytic zone (PDE4Bcat) (Homo sapiens, UniProt Q07343); IC50: 0.01 to 0.1 µmol/L

Form: item `CNc1ccc(-c2ccc3[nH]c(=O)ccc3c2)c2c(Cl)c(C(F)(F)F)nn12` ; test system PDE4B catalytic zone (PDE4Bcat) (Homo sapiens, UniProt Q07343); IC50: < 0.01 µmol/L

Form: item `COc1ccc(-c2ccc3c(=O)[nH]cc(Cl)c3c2)n2c(Cl)c(C(F)(F)F)nc12` ; test system PDE4B catalytic zone (PDE4Bcat) (Homo sapiens, UniProt Q07343); IC50: < 0.01 µmol/L

###

Biological target: PDE4B catalytic zone (PDE4Bcat) (Homo sapiens)
Test: Phosphodiesterase 4 inhibitory activity ([3H]-cAMP, recombinant PDE4Bcat)
Details: 30° C. 20 minutes, read-out: IC50 (μmol/L) PDE4
observation_type: IC50

Field: example entries. Status: answers known.
| molecule | recorded_measurement |
| --- | --- |
| COc1ccc(-c2cc(=O)[nH]c3ccccc23)c2cc(C(F)(F)F)nn12 [Example 51] | 0.01 to 0.1 µmol/L |
| CCc1cc2c(-c3ccc4[nH]c(=O)ccc4c3)ccc(OC)n2n1 [Example 87] | 0.01 to 0.1 µmol/L |
| COc1ccc(-c2ccc3c(ccc(=O)n3Cc3ccccc3)c2)c2cc(C(F)(F)F)nn12 [Example 94] | < 0.01 µmol/L |
| CNc1ccc(-c2ccc3c(c2)CCNC3=O)c2cc(C(F)(F)F)nn12 [Example 63] | < 0.01 µmol/L |

Summary for this molecule, CNc1ccc(-c2ccc3c(=O)[nH]cc(Cl)c3c2)n2c(Cl)c(C(F)(F)F)nc12 [Example 145] : IC50 is < 0.01 µmol/L

###

Target: PDE4B catalytic zone (PDE4Bcat) (Homo sapiens, UniProt Q07343)
Assay: Phosphodiesterase 4 inhibitory activity ([3H]-cAMP, recombinant PDE4Bcat)
Settings: 30° C. 20 minutes, read-out: IC50 (μmol/L) PDE4
pIC50: −log10 of the molar value.
observation_type: pIC50

| item_smiles | recorded_measurement |
| --- | --- |
| COc1ccc(-c2ccc3[nH]c(=O)ccc3c2)c2ccc(C)nc12 | 7.00 to 8.00 |
| CNc1ccc(-c2ccc3c(=O)[nH]cc(Cl)c3c2)n2cc(C(F)(F)F)nc12 | > 8.00 |
| Nc1ccc(-c2ccc3[nH]c(=O)ccc3c2)c2cc(C(F)(F)F)nn12 | > 8.00 |
| COc1ccc(-c2ccc3[nH]c(=O)ccc3c2)c2cncnc12 | 7.00 to 8.00 |
| Nc1ccc(-c2ccc3c(=O)[nH]cc(Cl)c3c2)n2cc(C(F)(F)F)nc12 | 7.00 to 8.00 |

Summary for this compound, `COc1ccc(-c2ccc3[nH]c(=O)ccc3c2)c2c(Cl)c(C(F)(F)F)nn12` : pIC50 is > 8.00

Summary for this compound, `COc1ccc(-c2ccc3c(c2)CNC3=O)c2cc(C(F)(F)F)nn12` : pIC50 is 7.00 to 8.00

Summary for this compound, `COc1ccc(-c2ccc3c(c2)CCC(=O)N3)c2c(Cl)c(C(F)(F)F)nn12` : pIC50 is 7.00 to 8.00

Summary for this compound, `COc1ccc(-c2ccc3[nH]c(=O)ccc3c2)c2c1OCC(=O)N2` : pIC50 is 7.00 to 8.00

Summary for this compound, `COc1ccc(-c2ccc3[nH]c(=O)ccc3c2)c2nc(C(F)(F)F)nn12` : pIC50 is > 8.00

Summary for this compound, `COc1ccc(-c2ccc3[nH]c(=O)ccc3c2)c2cc(C3CC3)nn12` : pIC50 is > 8.00

Summary for this compound, `CCOC(=O)Cn1c(=O)ccc2cc(-c3ccc(OC)n4nc(C(F)(F)F)cc34)ccc21` : pIC50 is 7.00 to 8.00

Summary for this compound, `COc1ccc(-c2ccc3c(c2)CCNC3=O)c2c(Cl)c(C(F)(F)F)nn12` : pIC50 is > 8.00

Summary for this compound, `CNc1ccc(-c2ccc3[nH]c(=O)ccc3c2)c2cc(C(F)(F)F)nn12` : pIC50 is > 8.00
